Cited source for all entries: patent US20230035798A1

Target: T1, membrane LIGHT R189A (human, UniProt O43557 1-240)
T1 chain: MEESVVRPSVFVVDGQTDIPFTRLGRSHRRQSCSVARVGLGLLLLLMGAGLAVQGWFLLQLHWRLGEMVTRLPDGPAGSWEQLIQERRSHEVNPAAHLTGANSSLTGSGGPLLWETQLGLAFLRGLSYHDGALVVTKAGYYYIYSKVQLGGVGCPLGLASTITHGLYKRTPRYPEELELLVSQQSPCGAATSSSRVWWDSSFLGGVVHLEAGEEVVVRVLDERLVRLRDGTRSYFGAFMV
Experiment: flow cytometry, transfected HEK293FF, mAb at EC50
We begin with a simple list: items and their reported binding, % of WT.
MEASUREMENT TYPE: binding, % of WT (%)

BINDER	EXPERIMENTAL VALUE
3E09 (antibody, V domains shown, chimeric human IgG4 (S-to-P, L-to-E at 248), human CL; also called Parental 3E09) VH: EVQLVESGGGLVKPGGSLKLSCEASGFTFSDYYMYWVRQTPEKRLEWVAAIGDGGIYTYYADTVKGRFTISRDNAKNILYLQMSSLKSNDTAMYYCARGTGDGFAYWGQGTLVTVS VL: DIVLTQSPASLAVSLGQRATISCRASESVDSYGNSFMHWYQQKPGQPPKLLIYLASNLESGVPARFSGSGSRTDFTLTIDPVEADDAATYYCQQNNEDPYTFGGGTKLEIK	1
3D12 (antibody, human IgG4, V domains shown, chimeric: mouse variable domains on human IgG4 HC (S-to-P and L-to-E at 248) and human CL; also called Parental 3D12; 3D12 chimeric) VH: QVQLQQPGAELVRPGASVTLSCKASDYTFTDSEIHWVKQTPVHGLEWIGEIDPETGGTAYNQKFKGKATLTADKSSSTAYMELRSLTSEDSAVYYCSRETDYFFDYWGQGTTLTVSS VL: DIQMTQSPASLSASVGETVTITCGASENIYGALNWYQRKQGKSPQLLIYGATNLADGMSSRFSGSGSGRQYSLKISSLHPDDVATYYCQNVLSTPWTFGGGTKLEIKR	1
2E08 (antibody, human IgG4, V domains shown, chimeric human IgG4 (S-to-P, L-to-E at 248), human CL; also called Parental 2E08) VH: QVQMKESGAELVRPGVSVKISCKGSGYTFTDYAIHWVKQSHAKTLEWIGVISTYYGDASYNQKFKGKATMTVDKSSSTAYMELARLTSDDSAIYYCARSRGEYGNYDAMDYWGQGTSVTVSS VL: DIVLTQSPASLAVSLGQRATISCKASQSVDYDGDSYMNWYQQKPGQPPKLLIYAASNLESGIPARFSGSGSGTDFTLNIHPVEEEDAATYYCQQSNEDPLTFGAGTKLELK	2
